System: RPMI-8226
assay.info: NCI tumour cell line growth inhibition, 48 h
The source made the active and inactive calls. No stated cut-off is given here; in the data, active = GI50 up to about 1.1 µM and inactive = higher.
Below, each entry is listed alongside its reported GI50.

Consider the worked cases shown below.
{"columns": ["compound", "experimental.value"],
 "data": [
  ["OC(c1ccc2c(c1)OCO2)c1ccc2c(c1)OCO2", "> 100 µM (inactive)"],
  ["Cc1ccc2[nH]c3c4c5ccccc5nc-4c[nH]c3c2c1", "18.1 µM (inactive)"],
  ["O=C(CCCN1CCC(C(O)c2ccc(F)cc2)CC1)c1ccc(F)cc1 (stereo not given)", "66.5 µM (inactive)"],
  ["COC(=O)C1=NC(=S)NC(c2ccccc2)C1c1nc2ccccc2o1 (stereo not given)", "> 50 µM (inactive)"],
  ["COC(=O)C1CCC(=O)C(Sc2ccccc2)C1 (stereo not given)", "44.3 µM (inactive)"],
  ["CC1C(c2cc(C(C)(C)C)c(O)c(C(C)(C)C)c2)c2cc3c(cc2OC1N1CCOCC1)OCO3 (stereo not given)", "26.9 µM (inactive)"],
  ["Cc1nn(C(=O)Cc2ccccc2)c2c1C(c1ccc(O)cc1O)SC(=N)N2 (stereo not given)", "> 100 µM (inactive)"],
  ["N#Cc1c(N2CCN(c3ccc([N+](=O)[O-])cc3)CC2)[n+]([O-])c2ccc(-c3ccc([N+](=O)[O-])cc3)cc2[n+]1[O-]", "5.02 µM (inactive)"],
  ["COc1ccc(-c2ncnc(-c3ccc(OC)c(OC)c3)n2)cc1OC", "> 10 µM (inactive)"]
]}

Consider now this further compound.
*Q* Requested read-out GI50, target or system RPMI-8226, entry Cc1ccc(NC(=O)CCC(CC(=O)C(C)(C)C)=NNC(=O)C(=O)NN)cc1C
*A* > 100 µM (inactive)
